- measurementTarget: EGFR^WT (Homo sapiens, UniProt P00533)
- Sequence (P00533 25-1210): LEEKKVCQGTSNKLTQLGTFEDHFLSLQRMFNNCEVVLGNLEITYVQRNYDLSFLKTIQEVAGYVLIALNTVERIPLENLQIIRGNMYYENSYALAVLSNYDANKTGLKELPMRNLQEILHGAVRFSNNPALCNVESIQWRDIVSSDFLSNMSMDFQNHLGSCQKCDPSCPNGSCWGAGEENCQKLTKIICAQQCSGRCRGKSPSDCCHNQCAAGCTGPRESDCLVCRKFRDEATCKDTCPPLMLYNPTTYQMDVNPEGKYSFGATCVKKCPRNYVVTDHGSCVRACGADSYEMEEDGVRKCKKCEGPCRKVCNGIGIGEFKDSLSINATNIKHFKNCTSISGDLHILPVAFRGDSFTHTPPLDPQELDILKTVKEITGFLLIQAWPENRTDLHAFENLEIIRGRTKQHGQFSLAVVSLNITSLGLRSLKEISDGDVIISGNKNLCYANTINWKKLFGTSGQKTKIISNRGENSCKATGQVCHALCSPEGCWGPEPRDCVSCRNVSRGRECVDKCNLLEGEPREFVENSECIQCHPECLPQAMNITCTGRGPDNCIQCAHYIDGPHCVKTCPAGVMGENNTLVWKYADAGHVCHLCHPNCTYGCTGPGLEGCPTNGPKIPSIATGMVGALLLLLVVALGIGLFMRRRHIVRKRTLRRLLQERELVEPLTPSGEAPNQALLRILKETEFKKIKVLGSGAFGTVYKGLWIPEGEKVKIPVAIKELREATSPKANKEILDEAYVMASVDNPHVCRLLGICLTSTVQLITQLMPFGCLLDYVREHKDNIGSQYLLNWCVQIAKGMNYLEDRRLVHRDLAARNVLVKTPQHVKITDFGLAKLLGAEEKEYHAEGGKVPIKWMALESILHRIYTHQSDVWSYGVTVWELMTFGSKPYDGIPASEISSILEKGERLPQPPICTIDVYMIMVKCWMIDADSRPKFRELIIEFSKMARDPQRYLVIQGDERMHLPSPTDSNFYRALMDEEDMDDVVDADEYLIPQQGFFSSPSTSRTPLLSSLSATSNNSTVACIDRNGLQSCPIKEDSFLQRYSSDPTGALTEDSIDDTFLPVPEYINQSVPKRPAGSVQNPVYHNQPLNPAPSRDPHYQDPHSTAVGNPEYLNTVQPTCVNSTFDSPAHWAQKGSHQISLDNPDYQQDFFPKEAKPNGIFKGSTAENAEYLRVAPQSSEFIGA
- testProtocol: ELISA kinase activity assay, poly(Glu,Tyr) […] substrate, […] ATP
measuredProperty: pEC50
As a rule, pEC50 stands for the negative log10 of the concentration, concentration in M.

Input line: Query (compound): `Cc1cc2c(C(C)C)c(O)c(O)c(C=O)c2c(O)c1-c1c(C)cc2c(C(C)C)c(O)c(O)c(C=O)c2c1O` ; field requested: pEC50
Output line: 6.60
